B1: Steroid hormone receptor ERR2, residues 100 to 176; numbered along this chain, O95718 (parent)
chain: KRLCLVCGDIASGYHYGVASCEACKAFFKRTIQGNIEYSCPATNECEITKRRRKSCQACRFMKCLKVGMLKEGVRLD

- Variants of: B1
- ASSAY SUMMARY: abundance fitness (aPCA) (normalised: wild type 0, dead -1); higher = more abundant; growth selection in yeast, the domain comes from the species named
- CONDITIONS: Homo sapiens
# if value of abundance fitness reaches -0.2, tag Y; if it stays below, tag N

hey, is abundance fitness for this one >= -0.2? KRLCLVCGDIASGYHYGVASCEACKAFFKTTIQGNIEYSCPATNECEITKRRRKSCQACRFMKCLKVGMLKEGVRLD
Y

hey, is abundance fitness for this one >= -0.2? KRLCLVCGDIASGYHYGVASCEACKAFFKRTIQGNIEYSCPATNECEITKRRRKSCQPCRFMKCLKVGMLKEGVRLD
N

hey, is abundance fitness for this one >= -0.2? KRLCLVCGDIASGYHGGVASCEACKAFFKRTIQGNIEYSCPATNECEITKRRRKSCQACRFMKCLKVGMLKEGVRLD
Y

hey, is abundance fitness for this one >= -0.2? KRLCLVCGDIASGYHYGVASCEACKAFFKRTIQGNIEYSCPATNECEITKRRRTSCQACRFMKCLKVGMLKEGVRLD
Y

hey, is abundance fitness for this one >= -0.2? KRLCLVCGDIASGYHYGVAMCEACKAFFKRTIQGNIEYSCPATNECEITKRRRKSCQACRFMKCLKVGMLKEGVRLD
N

// provenance: the Human Domainome abundance scans (Beltran et al. 2025)
